Taken from patent US20240117334A1.

# target_desc: Human Factor B (human) (UniProt P00751)
# Sequence (P00751 26-764 limits assumed): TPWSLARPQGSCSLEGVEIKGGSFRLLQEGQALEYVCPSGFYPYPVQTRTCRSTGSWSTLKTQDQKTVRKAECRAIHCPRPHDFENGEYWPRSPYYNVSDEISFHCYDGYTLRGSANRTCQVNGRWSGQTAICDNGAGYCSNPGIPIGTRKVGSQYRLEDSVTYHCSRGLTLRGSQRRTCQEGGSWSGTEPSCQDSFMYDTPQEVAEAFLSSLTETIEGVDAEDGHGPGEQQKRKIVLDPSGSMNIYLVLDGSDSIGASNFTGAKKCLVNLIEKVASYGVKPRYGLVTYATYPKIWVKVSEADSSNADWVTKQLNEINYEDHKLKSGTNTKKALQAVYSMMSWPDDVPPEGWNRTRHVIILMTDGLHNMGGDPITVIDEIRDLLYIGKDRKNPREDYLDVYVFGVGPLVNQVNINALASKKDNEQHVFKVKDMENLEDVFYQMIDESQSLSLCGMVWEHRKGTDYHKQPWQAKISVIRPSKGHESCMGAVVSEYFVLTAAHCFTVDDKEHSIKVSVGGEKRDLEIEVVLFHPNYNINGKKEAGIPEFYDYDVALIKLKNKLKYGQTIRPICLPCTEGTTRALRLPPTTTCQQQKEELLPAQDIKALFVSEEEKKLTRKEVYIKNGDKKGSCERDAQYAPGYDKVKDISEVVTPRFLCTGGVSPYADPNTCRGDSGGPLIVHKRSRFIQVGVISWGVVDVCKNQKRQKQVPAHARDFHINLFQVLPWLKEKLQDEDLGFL
# assay_info: cell-based or functional assay
measured_endpoint: fB Cleavage EC50 (nM)
Give the quantity in nM, number only.

binder	obs_value
chymase C22S/L99R/F173Y/S218L/A226R (enzyme) IIGGTESKPHSRPYMAYLEIVTSNGPSKFCGGFLIRRNFVLTAAHCAGRSITVTLGAHNITEEEDTWQKLEVIKQFRHPKYNTSTRHHDIMLLKLKEKASLTLAVGTLPFPSQFNFVPPGRMCRVAGWGRTGVLKPGSDTLQEVKLRLMDPQACSHYRDFDHNLQLCVGNPRKTKSAFKGDSGGPLLCAGVAQGIVSYGRLDAKPPRVFTRISHYRPWINQILQAN	546
chymase C22S/V138I/L160V/S189T/A226R (enzyme) IIGGTESKPHSRPYMAYLEIVTSNGPSKFCGGFLIRRNFVLTAAHCAGRSITVTLGAHNITEEEDTWQKLEVIKQFRHPKYNTSTLHHDIMLLKLKEKASLTLAVGTLPFPSQFNFVPPGRMCRIAGWGRTGVLKPGSDTLQEVKVRLMDPQACSHFRDFDHNLQLCVGNPRKTKTAFKGDSGGPLLCAGVAQGIVSYGRSDAKPPRVFTRISHYRPWINQILQAN	7130

// below: fB Cleavage EC50 requested for another binder
Data point: chymase C22S/P38Q/K40M/F41R/L99Y/V138I/F173L/D175S/A190S/V213A/S218V/A226R (enzyme) IIGGTESKPHSRPYMAYLEIVTSNGQSMRCGGFLIRRNFVLTAAHCAGRSITVTLGAHNITEEEDTWQKLEVIKQFRHPKYNTSTYHHDIMLLKLKEKASLTLAVGTLPFPSQFNFVPPGRMCRIAGWGRTGVLKPGSDTLQEVKLRLMDPQACSHLRSFDHNLQLCVGNPRKTKSSFKGDSGGPLLCAGVAQGIASYGRVDAKPPRVFTRISHYRPWINQILQAN ; fB Cleavage EC50 = 814
